target.under.test: USP7 53-206, Q93009
Sequence (Q93009 53-206): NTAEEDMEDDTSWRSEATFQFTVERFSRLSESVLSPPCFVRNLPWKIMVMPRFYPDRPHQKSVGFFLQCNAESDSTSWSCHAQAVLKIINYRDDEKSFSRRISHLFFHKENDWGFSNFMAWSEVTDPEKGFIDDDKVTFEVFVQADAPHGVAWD
measured.metric: selected by phage display

[[record]]
binder = "HDATASSSSAAATVRA [BSN, Q9UPA5]"
experimental_value = "confidence 4 (active)"

[[record]]
binder = "SGSVQTSSPPQLETVR [ARAP2, Q8WZ64]"
experimental_value = "confidence 2 (active)"

[[record]]
binder = "SSVPTTINTIGTSTST [SAMD4A, Q9UPU9]"
experimental_value = "confidence 2 (active)"

[[record]]
binder = "ASGSSVPSSPVSESVL [GRM1, Q13255]"
experimental_value = "confidence 4 (active)"

[[record]]
binder = "TVPSHSSHATAVTTSN [SAP130, Q9H0E3]"
experimental_value = "confidence 4 (active)"

[[record]]
binder = "MPSSSHGSMGGYNHSV [SS18, Q15532]"
experimental_value = "confidence 2 (active)"

